# assay-notes: Antiproliferative activity against human MDA-MB-231 cells after 48 hrs by SRB assay
# Type: functional
# conditions: MDA-MB-231, 48 h, read-out: pGI50 (converted)
Give GI50 for every item shown.
Numbers only, in nM.

# example entries with known answers
1) Cn1c(=O)c(C(=O)NCCC(=O)N2CCN(c3ccc([N+](=O)[O-])cc3)CC2)c(O)c2ccccc21
300
2) Cn1c(=O)c(C(=O)NCCC(=O)N2CCCCC2)c(O)c2ccccc21
1400
3) Cn1c(=O)c(C(=O)NCCC(=O)N2CCN(c3ccccc3F)CC2)c(O)c2ccccc21
1700

Now for a further compound.
Give its GI50 value. Item: Cn1c(=O)c(C(=O)NCCC(=O)N2CCN(c3ccccc3)CC2)c(O)c2ccccc21
1620
